System: Rattus norvegicus
measurement_description: In vivo for 5-HTP accumulation in hemispheres (cortex) against reserpine-pretreated rats.
Assay type: functional
Field 'label' (enum: satisfied / not satisfied). Set to satisfied when ED50 is strictly under 0.8 µmol/kg; else not satisfied.

CCCN(CCC)C1CCc2ccc3[nH]cc(C(C)=O)c3c2C1 (stereo unspecified) = not satisfied

Is it true that ED50 reported for CCCN(CCC)C1CCc2ccc3c(c2C1)CC(=O)N3 (stereo unspecified) is less than 0.8 µmol/kg?
not satisfied

Is it true that ED50 reported for CCCN(CCC)[C@H]1CCc2cc(F)c3[nH]ccc3c2C1 is less than 0.8 µmol/kg?
not satisfied

* * *

measurement_description: tmax in hours at a iv dose of 54.0(pmol/g/h).
Format: ADME, organism-based
condition_description: in vivo
property_measured: Tmax (h)
Answers are plain numbers, in h.

For the compound shown here, CCCN(CCC)C1CCc2cc(F)c3[nH]cc(C#N)c3c2C1 (stereo unspecified) , give the reported Tmax.
2

* * *

System: Rattus norvegicus
measurement_description: In vivo for 5-HTP accumulation in hemispheres (cortex) against reserpine-pretreated rats.
Assay type: functional
What ED50 was measured for each of the following?
Numbers only, in µmol/kg.

CCCN(CCC)[C@H]1CCc2ccc3[nH]ccc3c2C1 = 0.23

# batch size: 2; output ED50 per entry
1. CCCN(CCC)C1CCc2ccc3[nH]cc(C(=O)C(F)(F)F)c3c2C1 (stereo not drawn)
2. CCCN(CCC)[C@@H]1CCc2cc(F)c3[nH]ccc3c2C1

16.3
0.51

* * *

assayed_target: 5-hydroxytryptamine receptor 1B (Homo sapiens, UniProt P28222)
Sequence (P28222 whole entry): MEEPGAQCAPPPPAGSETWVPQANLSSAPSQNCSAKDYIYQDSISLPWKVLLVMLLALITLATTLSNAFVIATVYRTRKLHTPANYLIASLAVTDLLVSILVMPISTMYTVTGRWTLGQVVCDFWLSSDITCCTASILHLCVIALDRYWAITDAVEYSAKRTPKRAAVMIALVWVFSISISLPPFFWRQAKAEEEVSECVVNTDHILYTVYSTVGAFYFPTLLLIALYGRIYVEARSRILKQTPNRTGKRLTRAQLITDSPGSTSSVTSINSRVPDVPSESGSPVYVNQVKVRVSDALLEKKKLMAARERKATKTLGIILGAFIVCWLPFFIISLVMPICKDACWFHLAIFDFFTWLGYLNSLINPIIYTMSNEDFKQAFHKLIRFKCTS
measurement_description: Binding affinity against 5-hydroxytryptamine 1D receptor beta expressed in CHO-K1 cells, using [3H]5-HT as the radioligand.
Type: cell-based
condition_description: read-out: Ki
What pKi was measured for each of the following?
Answers are plain numbers, as −log10 of the molar value.

CCCN(CCC)C1CCc2cc(F)c3c(ccn3C)c2C1 (stereo unspecified) = 5.78

# batch size: 5; output pKi per entry
1. CCCN(CCC)[C@H]1CCc2cc(F)c3[nH]cc(C=O)c3c2C1
2. CCCN(CCC)[C@H]1CCc2ccc3[nH]ccc3c2C1
3. CCCN(CCC)C1CCc2ccc3c(c(C=O)cn3C)c2C1 (stereo unspecified)
4. CCCN(CCC)[C@@H]1CCc2ccc3[nH]cc(C#N)c3c2C1
5. CCCN(CCC)C1CCc2ccc3[nH]cc(CC(F)(F)F)c3c2C1 (stereo unspecified)

1: 6.75; 2: 5.64; 3: 6.36; 4: 7.59; 5: 6.39

# batch size: 2; output pKi per entry
1. CCCc1c[nH]c2c(F)cc3c(c12)CC(N(CCC)CCC)CC3 (stereo unspecified)
2. CCCN(CCC)[C@@H]1CCc2cc(F)c3[nH]ccc3c2C1

1. 6.75
2. 6.85

* * *

measurement_description: Rat bioavailability after iv/po administration, expressed as %
Assay type: ADME, organism-based
condition_description: in vivo
property_measured: bioavailability
The reply should read as a number followed by its unit.

For the compound shown here, CCCN(CCC)C1CCc2ccc3[nH]cc(C#N)c3c2C1 (stereo unspecified) , give the reported bioavailability.
54%

* * *

assayed_target: 5-hydroxytryptamine receptor 1A (Rattus norvegicus, UniProt P19327)
Field 'label' (enum: YES / NO). Set to YES when Ki is strictly under 7 nM; else NO.

Look over these answered cases.
CCCNC1CCc2cc(F)ccc2C1 (configuration not stated) = NO
CCCN(CCC)C1CCc2ccc3[nH]cc(C#N)c3c2C1 (configuration not stated) = YES
CCCN(CCC)C1CCc2ccc3[nH]cc(C(C)=O)c3c2C1 (configuration not stated) = NO
CCCN(CCC)[C@@H]1CCc2ccc3[nH]cc(C(=O)C(N)=O)c3c2C1 = NO
CCCN(CCC)C1CCc2cc(F)c3c(c(C=O)cn3C)c2C1 (configuration not stated) = NO
CCCN(CCC)C1CCc2ccc3[nH]cc(SC)c3c2C1 (configuration not stated) = NO

Is it true that Ki reported for CCCN(CCC)[C@H]1CCc2ccc3[nH]cc(C#N)c3c2C1 is less than 7 nM?
YES

Is it true that Ki reported for CCCN(CCC)C1CCc2ccc3[nH]cc(C(=O)C(F)(F)F)c3c2C1 (configuration not stated) is less than 7 nM?
NO

Is it true that Ki reported for CCCN(CCC)[C@@H]1CCc2ccc3[nH]cc(C#N)c3c2C1 is less than 7 nM?
YES

Is it true that Ki reported for CCCc1c[nH]c2c(F)cc3c(c12)CC(N(CCC)CCC)CC3 (configuration not stated) is less than 7 nM?
NO

Is it true that Ki reported for CCCN(CCC)C1CCc2ccc3[nH]cc(Cl)c3c2C1 (configuration not stated) is less than 7 nM?
YES

* * *

measurement_description: tmax in hours at a iv dose of 1.0(pmol/g/h).
Type: ADME, organism-based
condition_description: in vivo
property_measured: Tmax (min)
One number for each entry, in min.

For the compound shown here, CCCN(CCC)C1CCc2cccc(O)c2C1 (stereo unspecified) [8-OH-DPAT] , give the reported Tmax.
3

* * *

assayed_target: UniProtKB P19020
Sequence (P19020 whole entry): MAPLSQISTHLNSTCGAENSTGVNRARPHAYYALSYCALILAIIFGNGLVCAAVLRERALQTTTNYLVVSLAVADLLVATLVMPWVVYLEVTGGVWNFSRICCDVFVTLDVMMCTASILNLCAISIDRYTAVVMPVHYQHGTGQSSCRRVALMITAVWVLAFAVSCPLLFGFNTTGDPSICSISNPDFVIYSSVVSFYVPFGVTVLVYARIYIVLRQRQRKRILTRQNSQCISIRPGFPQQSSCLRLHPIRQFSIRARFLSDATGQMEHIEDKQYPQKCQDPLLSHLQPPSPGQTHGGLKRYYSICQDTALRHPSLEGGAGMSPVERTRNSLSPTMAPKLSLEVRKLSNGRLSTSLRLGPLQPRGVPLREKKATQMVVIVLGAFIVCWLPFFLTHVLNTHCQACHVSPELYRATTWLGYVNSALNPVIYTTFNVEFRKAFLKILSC
measurement_description: The compound was tested in vitro for binding affinity against cloned mammalian Dopamine receptor D3 expressed in CHO cells by, using [3H]spiperone as radioligand
Format: cell-based
What Ki was measured for each of the following?
One number for each entry, in µM.

# batch size: 2; output Ki per entry
1. CCCN(CCC)C1CCc2cc(F)c3c(c(C=O)cn3C)c2C1 (centres undefined)
2. CCCN(CCC)C1CCc2ccc3[nH]cc(CC(F)(F)F)c3c2C1 (centres undefined)

1. 0.572
2. 0.134

# batch size: 2; output Ki per entry
1. CCCN(CCC)C1CCc2cc(F)c3[nH]cc(C=O)c3c2C1 (centres undefined)
2. CCCNC1CCc2cc(F)ccc2C1 (centres undefined)

0.065
0.156

* * *

assayed_target: 5-hydroxytryptamine receptor 1A (Rattus norvegicus)
Sequence (P19327 whole entry): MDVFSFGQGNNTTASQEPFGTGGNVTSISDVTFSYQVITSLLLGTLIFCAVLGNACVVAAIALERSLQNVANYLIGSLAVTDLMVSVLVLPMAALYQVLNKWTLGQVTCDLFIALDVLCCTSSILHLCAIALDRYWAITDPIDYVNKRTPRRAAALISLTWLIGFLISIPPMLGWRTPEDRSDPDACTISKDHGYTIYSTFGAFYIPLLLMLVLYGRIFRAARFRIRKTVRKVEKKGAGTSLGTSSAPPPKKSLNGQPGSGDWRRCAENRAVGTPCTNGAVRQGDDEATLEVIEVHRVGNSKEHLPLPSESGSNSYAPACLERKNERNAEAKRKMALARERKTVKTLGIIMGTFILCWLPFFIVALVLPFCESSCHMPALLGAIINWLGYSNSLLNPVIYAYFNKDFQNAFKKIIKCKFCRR
property_measured: pKi
Numbers only, as −log10 of the molar value.

CCCN(CCC)C1CCc2ccc3[nH]cc(CN(C)C)c3c2C1 (configuration not stated) = 6.95
CCCN(CCC)[C@@H]1CCc2cc(F)c3[nH]ccc3c2C1 = 8.82
CCCN(CCC)C1CCc2ccc3c(c(C=O)cn3C)c2C1 (configuration not stated) = 7.40
CCCN(CCC)C1CCc2ccc3c(c2C1)CC(=O)N3 (configuration not stated) = 7.85
CCCN(CCC)[C@@H]1CCc2cc(F)c3[nH]cc(C=O)c3c2C1 = 9.52

# batch size: 4; output pKi per entry
1. CCCN(CCC)[C@H]1CCc2cc(F)c3[nH]cc(C=O)c3c2C1
2. CCCN(CCC)C1CCc2ccc3[nH]cc(CC(F)(F)F)c3c2C1 (configuration not stated)
3. CCCN(CCC)C1CCc2cc(F)c3[nH]ccc3c2C1 (configuration not stated)
4. CCCN(CCC)C1CCc2cc(F)c3c(ccn3C)c2C1 (configuration not stated)

9.10
7.74
8.85
6.60

* * *

assayed_target: 5-hydroxytryptamine receptor 1B (Homo sapiens, UniProt P28222)
measurement_description: Binding affinity against 5-hydroxytryptamine 1D receptor beta expressed in CHO-K1 cells, using [3H]5-HT as the radioligand.
Type: cell-based
condition_description: read-out: Ki
property_measured: Ki (nM)
Give bare numbers, in nM.

CCCN(CCC)[C@H]1CCc2cc(F)c3[nH]ccc3c2C1 = 948
CCCN(CCC)C1CCc2ccc3[nH]cc(C#N)c3c2C1 (stereo unspecified) = 38
CCCN(CCC)[C@H]1CCc2ccc3[nH]cc(C#N)c3c2C1 = 304
CCCN(CCC)[C@@H]1CCc2ccc3[nH]ccc3c2C1 = 139

# batch size: 5; output Ki per entry
1. CCCN(CCC)[C@@H]1CCc2ccc3[nH]cc(C=O)c3c2C1
2. CCCN(CCC)C1CCc2ccc3[nH]cc(C=O)c3c2C1 (stereo unspecified)
3. CCCN(CCC)C1CCc2ccc3[nH]ccc3c2C1 (stereo unspecified)
4. CCCN(CCC)[C@H]1CCc2ccc3[nH]cc(C=O)c3c2C1
5. CCCN(CCC)C1CCc2cc(F)c3[nH]ccc3c2C1 (stereo unspecified)

1. 210
2. 364
3. 349
4. 939
5. 216

# batch size: 2; output Ki per entry
1. CCCN(CCC)[C@@H]1CCc2ccc3[nH]cc(C(=O)C(N)=O)c3c2C1
2. CCCN(CCC)C1CCc2ccc3[nH]cc(C(=O)C(N)=O)c3c2C1 (stereo unspecified)

856
552
